Known protein stability index of a selection of sequences
System: Saccharomyces cerevisiae;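 note: PSI is a weighted mean of sequencing reads over stability bins, variants kept only with over 10 reads, mCherry proximal and sfGFP distal, peptide attached via GGGS linker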
ASSAY OVERVIEW: protein stability index of tFT-peptide fusion (C-terminal peptide) (PSI (0-1 scale)); higher = more stable (slower turnover)
TEST SETTINGS: genetic background: wild type; temperature: 30 C
// no unit, no text: just the number

Study these solved cases before continuing.
[Q] Field request: protein stability index | item: `VRGSLFGICSAL`
[A] 0.705

[Q] `LQTLSTLLPSLL` ?
[A] 0.689

[Q] `PAPLFFCAPFFF` ?
[A] 0.715

New cases:
[Q] Field request: protein stability index | item: `RHIKIADYKTLT`
[A] 0.686

[Q] `IVCYFFAFSFMW` ?
[A] 0.362

[Q] `LIAGTRRIPLFI` ?
[A] 0.406

[Q] `FWDSCAVSLYLR` ?
[A] 0.632

[Q] `RGEVSGRVGRVG` ?
[A] 0.684

[Q] `CARAGLGFRWVG` ?
[A] 0.621

[Q] `RVPGGLPCRPSL` ?
[A] 0.775

[Q] `SLRPPLHSPSPS` ?
[A] 0.674

[Q] `QIEQQKHKQPLI` ?
[A] 0.686

[Q] `GLCSGTGARWLV` ?
[A] 0.559

[Q] `SISGTSKDSASC` ?
[A] 0.668

[Q] `LVFRPVPVIFGL` ?
[A] 0.635

[Q] `FPHLAPTTHLLP` ?
[A] 0.673

[Q] `SLFSLLRSPSPF` ?
[A] 0.806

[Q] `SIIRWSKRTEES` ?
[A] 0.695

[Q] `GGGRAEPLEPGV` ?
[A] 0.648
